ASSAYED SYSTEM: Bcl-2-like protein 1 (Homo sapiens)
EXPERIMENT SUMMARY: inhibitors of Bim-Bcl-XL binding, primary screen, biochemical, multiplexed, bead flow cytometry, human Bcl-XL (AID 1007)
MEASUREMENT CONDITIONS: Bim peptide-Bcl-XL binding, fluorescence, at 10 µM, active compounds read high
Among all 190,000 compounds or so, about 80 (0.04%) were called active. A selection follows.
REPORTED ENDPOINT: inhibition (%)

COMPOUND	REPORTED ENDPOINT	RESULT VALUE
CCCn1nc(NS(=O)(=O)c2ccccc2)c2cc3cc(C)ccc3nc21	inhibition	0
C/C(=N/OC(=O)c1c(-c2c(F)cccc2Cl)noc1C)c1cnccn1	inhibition	-3
COc1ccc(CN2CCC(c3nc4ccc(Cl)cc4[nH]3)CC2)cc1	inhibition	0
NS(=O)(=O)c1cccc(NC(=O)COC(=O)/C=C/c2ccco2)c1	inhibition	-2
CC(=O)Nc1ccc(NC(=O)C(C)n2c3ccccc3c3nc(=O)cc(C)n32)cc1 (configuration not stated)	inhibition	0
O=C(O)c1cccc(NC(=S)N/N=C/c2c[nH]c3ccccc23)c1	inhibition	-4
CC(Nc1ccccc1)c1cccnc1 (configuration not stated)	inhibition	-2

====

ASSAYED SYSTEM: Bcl-2-like protein 1 (Homo sapiens) (UniProt Q07817)
Sequence (Q07817 whole entry, looked up): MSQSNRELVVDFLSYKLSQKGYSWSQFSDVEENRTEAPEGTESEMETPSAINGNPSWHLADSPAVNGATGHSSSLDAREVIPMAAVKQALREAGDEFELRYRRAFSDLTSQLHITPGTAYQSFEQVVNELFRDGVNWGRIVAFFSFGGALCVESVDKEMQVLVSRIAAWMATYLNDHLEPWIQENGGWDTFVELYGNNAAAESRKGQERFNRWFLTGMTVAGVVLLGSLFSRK
EXPERIMENT SUMMARY: inhibitors of Bim-Bcl-XL binding, primary screen, biochemical, multiplexed, bead flow cytometry, human Bcl-XL (AID 1007)
MEASUREMENT CONDITIONS: Bim peptide-Bcl-XL binding, fluorescence, at 10 µM, active compounds read high
The whole screen tested about 190,000 compounds, of which about 80 (0.04%) were called active. A selection follows.
REPORTED ENDPOINT: inhibition (%)

COMPOUND STRUCTURE	RESULT VALUE
COc1ccc(CC(=O)N[C@@H](CCSC)c2nc3ccccc3[nH]2)cc1	-5
Cc1ccccc1-n1nc(SCC(=O)O)sc1=S	2
Cc1ccc2c(=O)oc(N(C)C)nc2c1	1
CCOCCCNC(=O)C(=O)NCCCOCC	-11

====

ASSAYED SYSTEM: Bcl-2-like protein 1 (Homo sapiens)
EXPERIMENT SUMMARY: inhibitors of Bim-Bcl-XL binding, primary screen, biochemical, multiplexed, bead flow cytometry, human Bcl-XL (AID 1007)
MEASUREMENT CONDITIONS: Bim peptide-Bcl-XL binding, fluorescence, at 10 µM, active compounds read high
Hit rate of the full screen: of about 190,000 compounds, about 80 (0.04%) were called active. Not all results are given here.
Measured inhibition, listed per entry for reference.

MOLECULE	ASSAYED SYSTEM	UNITS	inhibition
Cc1ccc(OCC(=O)Nc2ccccc2Sc2ccc(Cl)cc2)c([N+](=O)[O-])n1	Bcl-2-like protein 1 (Homo sapiens)	%	0
CC(Sc1nc2c([nH]c3ccccc32)c(=O)n1C)c1ccccc1 (centres undefined)	Bcl-2-like protein 1 (Homo sapiens)	%	-6
COc1ccc(/C=N/N=C/c2c[nH]c(=O)c(C#N)c2Nc2ccccc2)cc1	Bcl-2-like protein 1 (Homo sapiens)	%	11
Cc1c(C(=O)O)nnn1-c1nonc1N	Bcl-2-like protein 1 (Homo sapiens)	%	0
Cc1ccc(O)c(-c2cc(C(=O)NCc3ccccc3)[nH]n2)c1	Bcl-2-like protein 1 (Homo sapiens)	%	-3
CN(c1ccccc1)S(=O)(=O)c1cc(C(=O)Nc2nc3ccccc3[nH]2)ccc1Cl	Bcl-2-like protein 1 (Homo sapiens)	%	8
CN(C)c1ccc(C=NCCc2ccc(S(N)(=O)=O)cc2)cc1	Bcl-2-like protein 1 (Homo sapiens)	%	-3
CCOC(=O)CCCNC(=O)COC(=O)c1cc(Br)c(Br)s1	Bcl-2-like protein 1 (Homo sapiens)	%	2
CC(C)Oc1ccc(CCc2nnc(SCC(=O)O)n2-c2ccccc2)cc1	Bcl-2-like protein 1 (Homo sapiens)	%	-5
